study_target: Stb4 (UniProt P50104)
Sequence (P50104 whole entry): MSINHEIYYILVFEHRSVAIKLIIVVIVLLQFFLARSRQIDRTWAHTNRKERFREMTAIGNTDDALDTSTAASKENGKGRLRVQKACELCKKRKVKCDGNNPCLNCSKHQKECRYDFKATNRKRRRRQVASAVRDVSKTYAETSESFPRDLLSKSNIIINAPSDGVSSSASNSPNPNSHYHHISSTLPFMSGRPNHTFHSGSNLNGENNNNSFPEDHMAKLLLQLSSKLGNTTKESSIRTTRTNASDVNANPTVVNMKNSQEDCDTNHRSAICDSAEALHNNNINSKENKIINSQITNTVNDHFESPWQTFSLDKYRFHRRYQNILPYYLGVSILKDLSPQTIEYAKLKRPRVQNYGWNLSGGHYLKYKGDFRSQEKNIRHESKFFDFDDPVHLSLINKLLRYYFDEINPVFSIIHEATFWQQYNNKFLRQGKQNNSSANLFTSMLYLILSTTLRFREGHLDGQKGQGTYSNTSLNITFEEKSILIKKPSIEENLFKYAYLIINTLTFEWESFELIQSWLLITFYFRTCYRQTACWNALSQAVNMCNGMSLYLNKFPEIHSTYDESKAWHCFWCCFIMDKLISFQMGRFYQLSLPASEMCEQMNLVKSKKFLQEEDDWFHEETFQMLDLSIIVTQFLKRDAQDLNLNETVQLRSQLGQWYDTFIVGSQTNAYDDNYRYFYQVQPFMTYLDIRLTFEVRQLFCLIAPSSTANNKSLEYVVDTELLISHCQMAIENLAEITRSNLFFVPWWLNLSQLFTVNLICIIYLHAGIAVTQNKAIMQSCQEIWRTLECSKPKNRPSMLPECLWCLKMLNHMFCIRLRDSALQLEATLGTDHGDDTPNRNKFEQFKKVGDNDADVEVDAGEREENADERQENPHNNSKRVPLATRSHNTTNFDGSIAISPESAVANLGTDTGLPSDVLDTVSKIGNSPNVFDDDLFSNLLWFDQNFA
test_name: PBM E-score (8-mer binding enrichment) (E-score (-0.5 to 0.5)); higher = stronger / more preferred TF binding
measurement_conditions: protein concentration: 200 nM; construct: GST-DNA-binding domain
In all, about 33,000 sequences were measured (“E-score (-0.5 to 0.5)”: median about -0.056, highest 2% from about 0.38 on). The sample holds the highest values, similar sequences and a random draw of the others, so the mix is not that of the screen.
endpoint_name: PBM E-score
Answers are plain numbers.

Example entries begin here.
CGTGGGGC    -0.121
CGGACCGA    0.419
CGAACCGC    0.0494

Each sequence below has a reported value. Please supply its PBM E-score.
1. CTCGAGCA
2. TCAACCGA

1: -0.0413; 2: 0.291

Value source: the supplement of paper PMC3334620
